- study-system: PD-1/PD-L1 (Homo sapiens)
- Sequence (Q9NZQ7 19-238 limits assumed): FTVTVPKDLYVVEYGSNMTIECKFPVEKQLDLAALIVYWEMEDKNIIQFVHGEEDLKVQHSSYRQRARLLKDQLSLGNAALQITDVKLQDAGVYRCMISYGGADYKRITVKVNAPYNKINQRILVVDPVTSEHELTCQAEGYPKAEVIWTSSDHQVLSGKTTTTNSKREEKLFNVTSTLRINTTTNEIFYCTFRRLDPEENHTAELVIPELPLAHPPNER
- assay-overview: PD-1/PD-L1 biochemical protein-protein interaction assay (ALPHA)
- stated-conditions: 0.3 nM His tagged PD-L1, 2.5 nM biotinylated Fc-PD-1, 60 minutes at 25° C., read-out: IC50 PD-L1-PD-1 Alpha IC50-mono PD-L1-fcP-D1
experimental-readout: IC50 (nM)

(P) CCNCc1cc(Cl)c(OCc2cccc(-c3cccc(COc4cc(OCc5cncc(C#N)c5)c(CNCC)cc4Cl)c3C)c2C)cc1OCc1cncc(C#N)c1
(Q) Cc1c(COc2cc(OCc3cncc(C#N)c3)c(CNC[C@@H](O)CC(=O)O)cc2Cl)cccc1-c1cccc(-c2ccc(OCCNC[C@@H](O)CC(=O)O)cc2)c1C
(R) COc1nc(OCc2cccc(-c3cccc(COc4nc(OC)c(CNC[C@@H](O)C(=O)O)cc4Cl)c3C)c2C)c(Cl)cc1CNC[C@@H](O)C(=O)O
Q: # rank above entries by IC50 (max first, min last) Provide the ranking by listing each label in its place in the requested order.
Result: P, R, Q
(P: 11.1 nM, R: 2.2 nM, Q: 0.1 nM)
